System: MCF7
assay name: Cytotoxicity against human MCF7 cells after 48 hrs by SRB
Type: functional
condition info: MCF7, 48 h
measurement kind: GI50

As a guide, the following entries are already answered.
item smiles | experimental result
O=C1NC(=O)/C(=C/c2ccc(OCC(=O)N3c4ccccc4Sc4ccccc43)cc2)S1 | 29.5 µM
O=C(COc1ccc(/C=C2\SC(=O)NC2=O)cc1)Nc1nc2ccccc2s1 | 25.1 µM
O=C1NC(=O)/C(=C\c2ccc(OCC(=O)N3C(=O)c4ccccc4S3(=O)=O)cc2)S1 | 37.2 µM
O=C(COc1ccc(/C=C2\SC(=O)NC2=O)cc1)Nc1ncc([N+](=O)[O-])s1 | > 100 µM
Cc1cc(NC(=O)COc2ccc(/C=C3\SC(=O)NC3=O)cc2)no1 | 39.8 µM
O=C(COc1ccc(/C=C2\SC(=O)NC2=O)cc1)Nc1ccccn1 | 29.5 µM

// GI50 lookup, key: Cc1c(NC(=O)COc2ccc(/C=C3\SC(=O)NC3=O)cc2)c(=O)n(-c2ccccc2)n1C
> 100 µM

Consider next the compound CCCCC1=NC2(CCCC2)C(=O)N1C(=O)COc1ccc(/C=C2/SC(=O)NC2=O)cc1 in the same way.
28.2 µM

Check Cc1cnc(NC(=O)COc2ccc(/C=C3\SC(=O)NC3=O)cc2)s1 too.
> 100 µM
